assay-summary: amyloid nucleation score (Sup35N fusion, yeast selection) (log enrichment); library NNK3; higher = more nucleation; inactive = no reads after selection;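 note: zero at mode of non-aggregating sequences after 7 days selection at 30°C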
measure-name: amyloid nucleation score

INSERT INTO results (substance, observed) VALUES
  ('GSIVFGCSWASQSVCQDQWV', 'inactive'),
  ('GVMGYSSYSLSAENTVYSPW', 'inactive'),
  ('SKVPYPNLVTCVVLCVGFYV', 'inactive'),
  ('RMVDFADF', 'inactive'),
  ('MYFFSHPPSNRRE', 'inactive'),
  ('EDGCRNVRLFTMVRSLMYK', 'inactive'),
  ('DFAVGLLVHWHNPHYNTELQ', 1.25),
  ('VNRFVDTVGKGRITIIGCEH', 'inactive');

Recorded amyloid nucleation score (substance `TICYGD` ): inactive

Recorded amyloid nucleation score (substance `CKVYGKSLVMAYN` ): inactive

Recorded amyloid nucleation score (substance `SNDFEVLVLQLLYFSIWCY` ): 1.48

----------
assay-summary: amyloid nucleation score (Sup35N fusion, yeast selection) (log enrichment); library NNK3; higher = more nucleation; inactive = no reads after selection
measure-name: amyloid nucleation score

Illustrative cases are given below, each with its answer.
INSERT INTO assay_data (substance, measure_name, observed) VALUES
  ('RNLLRSTLKGYFWYSCNVDV', 'amyloid nucleation score', 'inactive'),
  ('SIYDSVFKMFCVWIVTSVLF', 'amyloid nucleation score', 'inactive'),
  ('FNGMACVFRISFVALRLQGG', 'amyloid nucleation score', -0.892),
  ('CGRLHDVG', 'amyloid nucleation score', 'inactive'),
  ('TVNWLL', 'amyloid nucleation score', 'inactive'),
  ('SFPFDLFGNIVW', 'amyloid nucleation score', 'inactive'),
  ('YRPRGERLRFMYCY', 'amyloid nucleation score', 'inactive'),
  ('SPQLNCEANWKVFCWAGMDP', 'amyloid nucleation score', 'inactive');

Note: attention shifts to another entry.
Recorded amyloid nucleation score (substance `NIIFRTW` ): inactive

----------
assay-summary: amyloid nucleation score (Sup35N fusion, yeast selection) (log enrichment); library NNK2; higher = more nucleation; inactive = no reads after selection
measure-name: amyloid nucleation score
API note: the answer field is a bare number with no unit suffix.

Illustrative cases are given below, each with its answer.
INSERT INTO assay_data (substance, observed) VALUES
  ('GNSLNSYLSE', -0.346),
  ('LDISSDPFFSS', -1.25),
  ('RWHFDYRVKQV', -0.058),
  ('LSYNVLLGRIEIPWVSFSRM', 3.94);

Recorded amyloid nucleation score (substance `ILTFRVYPIPFDFYFGGLEL` ): 0.034

Recorded amyloid nucleation score (substance `YYEIIWYTFQEKLSGCSSCS` ): -2.02

Recorded amyloid nucleation score (substance `RASMVDF` ): 0.108

Recorded amyloid nucleation score (substance `SVDYLCFVFNGGRSSSECQY` ): 7.75

Recorded amyloid nucleation score (substance `RFGSLVFFCTGFERSWHTSA` ): 0.684

----------
assay-summary: amyloid nucleation score (Sup35N fusion, yeast selection) (log enrichment); library NNK2; higher = more nucleation; inactive = no reads after selection
This listing pairs substances with measured amyloid nucleation score.
API note: the answer field is a bare number with no unit suffix.

Illustrative cases are given below, each with its answer.
INSERT INTO results (substance, measure_name, observed) VALUES
  ('NSFMPMTWLPFRSQTEKRGS', 'amyloid nucleation score', 3.73),
  ('LLIKSSCFCSLDVFFS', 'amyloid nucleation score', 3.69),
  ('FSCWGFMVFRMVGDMLSMKD', 'amyloid nucleation score', -1.58),
  ('LNVVARMFYLSLSSSGNWSG', 'amyloid nucleation score', -0.849);

Recorded amyloid nucleation score (substance `NKNRKQSLDKPS` ): -0.493

Recorded amyloid nucleation score (substance `DYVMYPGLVAMLSVSTPSQE` ): 0.477

Recorded amyloid nucleation score (substance `GSDAVR` ): 2.7

Recorded amyloid nucleation score (substance `FMNANRRVKKGQRVKRWTYS` ): 0.045

Recorded amyloid nucleation score (substance `GIESSPFCFSLPGSATKRKQ` ): 0.485

----------
This listing pairs substances with measured amyloid nucleation score.
assay-summary: amyloid nucleation score (Sup35N fusion, yeast selection) (log enrichment); library NNK1; higher = more nucleation; inactive = no reads after selection
API note: the answer field is a bare number with no unit suffix.

Illustrative cases are given below, each with its answer.
INSERT INTO assay_data (substance, observed) VALUES
  ('MYVNSSNYDLWMNFKIVFWA', 1.18),
  ('KFIDFERLFSLRGWSVCNER', 0.889),
  ('ILSRKGLLVQRKRVNVVVIP', 0.437),
  ('FVYFTGIMIC', -0.46),
  ('SIQPIW', 0.952),
  ('KDRMITPKPTVVTHLVVSYG', -0.23);

Recorded amyloid nucleation score (substance `YTWQYAYLCQVMTSFYSGSI` ): -0.269

Recorded amyloid nucleation score (substance `MMVLKFGMLVLSGDLAPATS` ): 0.854

Recorded amyloid nucleation score (substance `ILVGCSKSRRLNGGQLLIPS` ): 0.314

Recorded amyloid nucleation score (substance `CIFPRCVYLYHSVWVDVVGC` ): -0.097

Recorded amyloid nucleation score (substance `DINWYTLDAHV` ): -1.86

Recorded amyloid nucleation score (substance `YCRFWVDFFVFESILDSPPN` ): 0.093

Recorded amyloid nucleation score (substance `KMGYFE` ): 0.915

Recorded amyloid nucleation score (substance `TTPGALSSRTMSMPDVLGIE` ): 1.37

Recorded amyloid nucleation score (substance `ELGYSTHCIMS` ): -0.735

Recorded amyloid nucleation score (substance `YFSGLKDFILISNQNGSS` ): 2.66

----------
assay-summary: amyloid nucleation score (Sup35N fusion, yeast selection) (log enrichment); library NNK3; higher = more nucleation; inactive = no reads after selection
measure-name: amyloid nucleation score

INSERT INTO measurements (substance, measure_name, observed) VALUES
  ('SHLFREIDITWSCSLVISCN', 'amyloid nucleation score', 'inactive'),
  ('SPVHLCMDLGSS', 'amyloid nucleation score', 'inactive'),
  ('ELFDWTFLFPDSSINMWK', 'amyloid nucleation score', 'inactive'),
  ('SFFRNRGGEDFFISWWFENN', 'amyloid nucleation score', 'inactive');

Recorded amyloid nucleation score (substance `LFVLIDYNRYP` ): inactive

Recorded amyloid nucleation score (substance `SKGSWHVFNKGSEWVKYFGM` ): inactive

Recorded amyloid nucleation score (substance `FYRAYSDYFWKTMFSYLGTS` ): -0.619

----------
assay-summary: amyloid nucleation score (Sup35N fusion, yeast selection) (log enrichment); library NNK2; higher = more nucleation; inactive = no reads after selection
This listing pairs substances with measured amyloid nucleation score.
API note: the answer field is a bare number with no unit suffix.

Illustrative cases are given below, each with its answer.
INSERT INTO measurements (substance, measure_name, observed) VALUES
  ('RNSMGTFSRWYPIMY', 'amyloid nucleation score', -0.54),
  ('CTDQRGLSIIVLGYNSHSMR', 'amyloid nucleation score', 5.68),
  ('LDATNSKNVYRMPAWKGNMR', 'amyloid nucleation score', 0.564),
  ('SSFRSLRSRHPPGTLPPDTP', 'amyloid nucleation score', 0.919),
  ('SCQFWSTFCTSC', 'amyloid nucleation score', 0.378),
  ('RTPPISMGKHNFVYVSSVCG', 'amyloid nucleation score', -1.1),
  ('YRPQATGLGSRGRR', 'amyloid nucleation score', 0.81),
  ('SFRYLCIRNGTSYGMYTSPV', 'amyloid nucleation score', 0.478);

Recorded amyloid nucleation score (substance `SPYLMSTDKIRLSP` ): 1.16

Recorded amyloid nucleation score (substance `GCSAQACYK` ): 1.03

Recorded amyloid nucleation score (substance `RTMSNGSDVCFNNGMFHYLN` ): -1.04

Recorded amyloid nucleation score (substance `NSEHTNLSSHLGNIRFINCL` ): 0.037

Recorded amyloid nucleation score (substance `GMTEWVGLAQERIYAWAKSE` ): 0.517

Recorded amyloid nucleation score (substance `FGLYRVRGRSEYRVDHTGWG` ): 0.534

Recorded amyloid nucleation score (substance `YNLNCHLFSAWTFNYKIAFL` ): 5.96

Recorded amyloid nucleation score (substance `YPQGVGSDLTS` ): 0.953

Recorded amyloid nucleation score (substance `FAMRTSKKVSRTTAGGTDPF` ): -0.696

Recorded amyloid nucleation score (substance `DSRCIDTVFNWYEHTSSRYR` ): -0.287

Recorded amyloid nucleation score (substance `SYYEFVVNLGKPAISVDSIT` ): 0.349

Recorded amyloid nucleation score (substance `SDVSREVKV` ): -0.038

Recorded amyloid nucleation score (substance `HTVTKVTLRLVCTMGCFKMM` ): 0.135

Recorded amyloid nucleation score (substance `GLDMDGSVLPFVFYRSMYGE` ): 0.136
